Entries and their IC50 values follow.
System: SMN2 mRNA
Assay: RT-qPCR splicing assay panel, SMN2 canonical junction (CJ) mRNA
Assay type: cell-based, human
Details: Homo sapiens, canonical junction (CJ) mRNA, RT-qPCR panel, Table 4A; read-out: SMN2, decrease in CJ mRNA levels, IC50

# annotated cases, reported IC50 shown
molecule | IC50
COc1cncc(-c2ccc(-c3ccc(N4CC[C@H](NC5CCC5)C4)nn3)c(O)c2)c1 | 1000 to 10000 nM
Cc1nnc(-c2cc(O)c(-c3ccc(N4CC[C@H](NC5CCC5)C4)nn3)cc2F)s1 | 100 to 1000 nM
Cc1ncc(-c2cc(O)c(-c3ccc(N4CC[C@](C)(NCC5CC5)C4)nn3)cc2F)s1 (single isomer, unassigned) | < 100 nM
CCN(C1CCC1)[C@@H]1CCN(c2ccc(-c3ccc(-c4cnnc(OC)c4)cc3O)nn2)C1 | < 100 nM
COc1cc(-c2ccc(-c3ccc(N4CCC(CNC5CCC5)C4)nn3)c(O)c2)cnn1 (centres unmarked) [Compound 348] | < 100 nM
COc1cc(-c2ccc(-c3ccc(N4CC[C@H](NC5(C)CCC5)C4)nn3)c(O)c2)ncn1 | < 100 nM
COc1cc(-c2cc(O)c(-c3ccc(N4CC[C@@H](NC5CC5)C4)nn3)cc2F)cnn1 | < 100 nM

Note to self: IC50 recorded for `Cc1nnc(-c2ccc(-c3ccc(N4CC[C@H](NCC5CC5)C4)nn3)c(O)c2)s1` was < 100 nM
